experiment-summary: self-splicing fitness, log relative to wild type (ln ratio); higher = more splicing; Tetrahymena group I intron in knt gene, E. coli kanamycin selection, DiMSum; sequences stand for … in CUCUCU…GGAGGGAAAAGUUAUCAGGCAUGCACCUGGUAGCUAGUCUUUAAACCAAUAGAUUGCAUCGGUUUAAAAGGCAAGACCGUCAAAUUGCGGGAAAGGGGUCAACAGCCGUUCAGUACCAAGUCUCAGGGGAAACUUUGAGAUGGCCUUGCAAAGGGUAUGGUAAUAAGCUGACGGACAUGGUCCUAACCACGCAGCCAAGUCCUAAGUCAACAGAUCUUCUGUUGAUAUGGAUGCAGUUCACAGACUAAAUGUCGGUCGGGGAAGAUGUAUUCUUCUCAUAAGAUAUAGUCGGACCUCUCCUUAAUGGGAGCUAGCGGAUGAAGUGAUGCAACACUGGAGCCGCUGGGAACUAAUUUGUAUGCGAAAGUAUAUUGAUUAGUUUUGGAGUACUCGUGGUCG;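 further: selection with 25 µg/mL kanamycin versus none on LB agar overnight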
experimental-context: 30 °C
measured-quantity: self-splicing fitness (ln)

Entry under test: AUCGAGCAAUAUUACGUACA . Its self-splicing fitness (ln) was -3.78

Entry under test: CGCGAGCAAUAUUACGAAGU . Its self-splicing fitness (ln) was -3.36

Entry under test: GACGAGCAAUAUUACGUGUG . Its self-splicing fitness (ln) was -2.9

Entry under test: AAGAAGCAAUAUUACGGGCU . Its self-splicing fitness (ln) was -1.35

Entry under test: AGCCAGCAAUAUUACGAUUU . Its self-splicing fitness (ln) was -2.3

Entry under test: GCUGAGCAAUAUUACGUAGA . Its self-splicing fitness (ln) was -2.41

Entry under test: CGCUAGCAAUAUUACGGCCA . Its self-splicing fitness (ln) was -0.309

Entry under test: AUGUAGCAAUAUUACGACGU . Its self-splicing fitness (ln) was -0.432

Entry under test: GAGGAGCAAUAUUACGUAAC . Its self-splicing fitness (ln) was -1.59

Entry under test: GUACAGCAAUAUUACGAGAG . Its self-splicing fitness (ln) was -2.62

Entry under test: UUUUAGCAAUAUUACGGCGA . Its self-splicing fitness (ln) was -0.835

Entry under test: GCAGAGCAAUAUUACGUAUU . Its self-splicing fitness (ln) was -3.82

Entry under test: UACUAGCAAUAUUACGAUCG . Its self-splicing fitness (ln) was 0.0068

Entry under test: GGCGAGCAAUAUUACGCUCA . Its self-splicing fitness (ln) was -1.02

Entry under test: GCACAGCAAUAUUACGUUAC . Its self-splicing fitness (ln) was -1.14

Entry under test: GCUAAGCAAUAUUACGUAUG . Its self-splicing fitness (ln) was -2.2

----------
experiment-summary: self-splicing fitness, log relative to wild type (ln ratio); higher = more splicing; Tetrahymena group I intron in knt gene, E. coli kanamycin selection, DiMSum; sequences stand for … in CUCUCU…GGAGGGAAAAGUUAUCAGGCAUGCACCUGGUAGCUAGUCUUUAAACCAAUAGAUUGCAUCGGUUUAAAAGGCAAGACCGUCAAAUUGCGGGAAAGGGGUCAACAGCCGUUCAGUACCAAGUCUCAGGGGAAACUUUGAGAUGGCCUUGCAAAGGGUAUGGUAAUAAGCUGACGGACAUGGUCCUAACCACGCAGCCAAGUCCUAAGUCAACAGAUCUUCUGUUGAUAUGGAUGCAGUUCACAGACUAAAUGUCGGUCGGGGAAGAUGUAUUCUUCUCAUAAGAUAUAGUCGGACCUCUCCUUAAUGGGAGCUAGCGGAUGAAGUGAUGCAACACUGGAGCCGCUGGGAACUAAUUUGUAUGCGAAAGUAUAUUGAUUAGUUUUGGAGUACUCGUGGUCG
experimental-context: 30 °C
Please respond with reported self-splicing fitness (ln) for every item in the list.
Could you respond with only the numeric value?

Entry under test: AUCGAGCAAUAUUACGUAAC . Its self-splicing fitness (ln) was -3.15

Entry under test: AUCGAGCAAUAUUACGGUUC . Its self-splicing fitness (ln) was -2.93

Entry under test: AUGCAGCAAUAUUACGGCGU . Its self-splicing fitness (ln) was -4.06

Entry under test: UGAAAGCAAUAUUACGGCCG . Its self-splicing fitness (ln) was -0.266

Entry under test: CAAUAGCAAUAUUACGUACA . Its self-splicing fitness (ln) was -3.18

Entry under test: UCUUAGCAAUAUUACGAAAG . Its self-splicing fitness (ln) was -2.07

Entry under test: UGAUAGCAAUAUUACGGUAU . Its self-splicing fitness (ln) was -3.75

Entry under test: CGAGAGCAAUAUUACGCGGG . Its self-splicing fitness (ln) was -3.05

Entry under test: AGAAAGCAAUAUUACGUGUG . Its self-splicing fitness (ln) was -2.13

Entry under test: CACCAGCAAUAUUACGAGGA . Its self-splicing fitness (ln) was -2.74

Entry under test: UCGCAGCAAUAUUACGUACA . Its self-splicing fitness (ln) was -1.62

Entry under test: CGCUAGCAAUAUUACGCAGU . Its self-splicing fitness (ln) was -3.63

Entry under test: GCCCAGCAAUAUUACGCUAU . Its self-splicing fitness (ln) was -0.826

Entry under test: AGAUAGCAAUAUUACGGACG . Its self-splicing fitness (ln) was -0.861

Entry under test: CGAGAGCAAUAUUACGUAUA . Its self-splicing fitness (ln) was -4.06

Entry under test: CCGUAGCAAUAUUACGAGUC . Its self-splicing fitness (ln) was -2.86

Entry under test: CGUUAGCAAUAUUACGAUCG . Its self-splicing fitness (ln) was -0.9

Entry under test: ACGUAGCAAUAUUACGCAAA . Its self-splicing fitness (ln) was -1.78

Entry under test: CGCCAGCAAUAUUACGUGGA . Its self-splicing fitness (ln) was -3.6

Entry under test: UACGAGCAAUAUUACGCGCA . Its self-splicing fitness (ln) was -1.42

Entry under test: GAGAAGCAAUAUUACGCCGA . Its self-splicing fitness (ln) was -2.1

Entry under test: AUUGAGCAAUAUUACGCAUU . Its self-splicing fitness (ln) was -2.64

Entry under test: AAUCAGCAAUAUUACGCAUC . Its self-splicing fitness (ln) was -0.287

Entry under test: ACACAGCAAUAUUACGUUCA . Its self-splicing fitness (ln) was -1.96

Entry under test: CUAGAGCAAUAUUACGUUGC . Its self-splicing fitness (ln) was -3.14

Entry under test: UCUCAGCAAUAUUACGCAGA . Its self-splicing fitness (ln) was -2.73

Entry under test: UGCUAGCAAUAUUACGUCAU . Its self-splicing fitness (ln) was -2.72

Entry under test: CCCUAGCAAUAUUACGCCAC . Its self-splicing fitness (ln) was -2.88

Entry under test: CUCCAGCAAUAUUACGCAUU . Its self-splicing fitness (ln) was -3.38

Entry under test: GCUAAGCAAUAUUACGAUAC . Its self-splicing fitness (ln) was -1.9

Entry under test: GCAAAGCAAUAUUACGUAAU . Its self-splicing fitness (ln) was -1.23

Entry under test: CGGUAGCAAUAUUACGACAA . Its self-splicing fitness (ln) was -2

Entry under test: AUCCAGCAAUAUUACGGCUU . Its self-splicing fitness (ln) was -0.0325

Entry under test: ACUAAGCAAUAUUACGUAUC . Its self-splicing fitness (ln) was -2.91

----------
experiment-summary: self-splicing fitness, log relative to wild type (ln ratio); higher = more splicing; Tetrahymena group I intron in knt gene, E. coli kanamycin selection, DiMSum; sequences stand for … in CUCUCU…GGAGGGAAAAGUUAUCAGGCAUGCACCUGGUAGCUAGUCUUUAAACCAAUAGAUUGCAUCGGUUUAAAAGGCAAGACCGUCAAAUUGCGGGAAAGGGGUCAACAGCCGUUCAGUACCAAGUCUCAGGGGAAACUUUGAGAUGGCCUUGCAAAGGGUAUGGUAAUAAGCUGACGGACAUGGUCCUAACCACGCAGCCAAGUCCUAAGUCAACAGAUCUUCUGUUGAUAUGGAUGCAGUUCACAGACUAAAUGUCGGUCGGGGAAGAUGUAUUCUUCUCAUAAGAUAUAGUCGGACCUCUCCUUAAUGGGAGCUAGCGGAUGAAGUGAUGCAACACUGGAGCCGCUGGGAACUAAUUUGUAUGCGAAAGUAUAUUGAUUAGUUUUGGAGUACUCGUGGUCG
experimental-context: 37 °C
measured-quantity: self-splicing fitness (ln)

Entry under test: ACGUAGCAAUAUUACGAUAC . Its self-splicing fitness (ln) was -2.26

Entry under test: CAAUAGCAAUAUUACGCGAG . Its self-splicing fitness (ln) was -0.754

Entry under test: UAGUAGCAAUAUUACGGGCA . Its self-splicing fitness (ln) was -0.536

Entry under test: UAAUAGCAAUAUUACGAUCG . Its self-splicing fitness (ln) was 0.472

Entry under test: AUUUAGCAAUAUUACGACAU . Its self-splicing fitness (ln) was 0.28

Entry under test: CCAGAGCAAUAUUACGUUGG . Its self-splicing fitness (ln) was -2.57

Entry under test: AUAAAGCAAUAUUACGCUGA . Its self-splicing fitness (ln) was -0.907

Entry under test: AGUCAGCAAUAUUACGGGGG . Its self-splicing fitness (ln) was -2.6
